Task for the reader: assign each of the following binders its reported glycan array binding signal (z-score).
# TESTED_ON: Neu5Ac(a2-6)Gal(b1-4)GlcNAc(b1-2)[Neu5Ac(a2-6)Gal(b1-4)GlcNAc(b1-4)]Man(a1-3)[GlcNAc(b1-4)][Neu5Ac(a2-6)Gal(b1-4)GlcNAc(b1-2)[Neu5Ac(a2-6)Gal(b1-4)GlcNAc(b1-6)]Man(a1-6)]Man(b1-4)GlcNAc(b1-4)GlcNAc
# MEASUREMENT_PROTOCOL: glycan array binding signal (z-score within array); higher = stronger binding
# SETTINGS: glycan notation: IUPAC condensed, linker removed
The full list was thinned out, with the strongest signals kept by preference.
Hey, just send me the number, nothing else.

So what does the record say about glycan array binding signal (z-score) for Sp8391B-bot-388-20-388 (Bacteroides ovatus) (protein) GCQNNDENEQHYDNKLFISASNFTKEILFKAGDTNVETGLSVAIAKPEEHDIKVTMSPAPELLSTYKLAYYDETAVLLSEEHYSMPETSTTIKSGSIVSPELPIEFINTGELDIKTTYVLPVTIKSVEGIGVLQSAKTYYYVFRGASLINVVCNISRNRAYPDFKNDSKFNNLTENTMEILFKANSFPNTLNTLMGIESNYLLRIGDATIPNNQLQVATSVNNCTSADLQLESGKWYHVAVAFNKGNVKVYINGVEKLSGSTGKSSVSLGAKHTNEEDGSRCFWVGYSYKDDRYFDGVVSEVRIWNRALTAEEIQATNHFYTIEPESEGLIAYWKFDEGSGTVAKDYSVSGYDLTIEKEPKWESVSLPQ ?
2.53

Would you kindly share the measured glycan array binding signal (z-score) for DCIR1 (Mus musculus), Q9QZ15 (protein) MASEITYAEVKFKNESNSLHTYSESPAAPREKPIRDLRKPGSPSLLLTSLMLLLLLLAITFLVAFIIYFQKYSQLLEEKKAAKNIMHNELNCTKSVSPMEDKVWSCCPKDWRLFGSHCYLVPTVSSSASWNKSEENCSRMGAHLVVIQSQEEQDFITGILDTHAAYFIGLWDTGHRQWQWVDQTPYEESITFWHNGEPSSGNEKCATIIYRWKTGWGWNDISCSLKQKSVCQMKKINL ?
-0.823
